meta.source: PubChem BioAssay (NCI)

tested on: HOP-62 NSCLC; test: NCI-60 one-dose screen, 48 h (100 = growth as untreated, 0 = no growth, -100 = all killed); conditions: 10 µM unless noted
Compounds without any hit were thinned out: in the full panel of roughly 83,000, 20% have a hit.
For each record, write down the corresponding growth.
Expressed in %, but write only the number.

Exercise: What value of growth has been reported for the following compound? `CCOC(=O)c1cc2c(n(C)c1=O)-c1cnn(-c3ccc(OC)cc3)c1CC2`
Solution: 108

Exercise: Next entry: COc1cc(C2C3=C(COC3=O)N(CCO)c3cc4c(cc32)OCO4)cc(OC)c1O (stereo not drawn)
Solution: 41.7

Exercise: Next entry: `Nc1nc(N)c(C=Nc2ccc(Br)cc2)c(Nc2ccc(Br)cc2)n1`
Solution: 98.9

Exercise: Next entry: `COc1ccc(NC(=O)COc2ccccc2)c(C(N)=O)c1`
Solution: 20.3

Exercise: Next entry: `Clc1ccc(Nc2ccnc(N3CCN(c4ccnc5cc(Cl)ccc45)CC3)n2)cc1`
Solution: 47.4

Exercise: Next entry: `COC(=O)[C@@H]1CCCN1C(=O)[C@@H]1CCCN1C(=O)[C@@H](Cc1c[nH]c2ccccc12)NC(=S)Nc1cc(C(F)(F)F)cc(C(F)(F)F)c1`
Solution: 83.3

Exercise: Next entry: `O=c1onc(-c2ccccc2)c2ccccc12`
Solution: 117

Exercise: Next entry: `Cc1nc(-c2ccccc2)cc2c(O)c(C(=O)N/N=C/Cc3ccccc3)[nH]c(=O)c12`
Solution: 104

Exercise: Next entry: `Cc1ccc(S(=O)(=O)c2ccc3[nH]c(=O)[nH]c(=O)c3c2)cc1`
Solution: 106

Exercise: Next entry: `O/N=C/c1cccs1`
Solution: 94.3

Exercise: Next entry: CCOC(=O)C1=C(C)N2C(=NC3=C(CCCC/C3=C\c3cc(OC)c(OC)c(OC)c3)C2c2cc(OC)c(OC)c(OC)c2)S1 (stereo not drawn)
Solution: 50

Exercise: Next entry: `O=C(Nc1ccc(Cl)c(Cl)c1)NC(CO)(CO)CO`
Solution: 88.1

Exercise: Next entry: `Cc1ccc(C(=O)Nc2ccccc2N)cc1`
Solution: 92.2

###

system: COLO 205 colon; assay: NCI-60 one-dose screen, 48 h; details: 10 µM unless noted
About 83,000 compounds went through this panel and 20% of them were active in at least one assay; those are over-represented in the sample as a whole. Calls of active or inactive are those of the source. The calls were made as follows: active = growth percent below 10; inactive = the rest.
Respond using exactly one of the listed classes: active, inactive

Exercise: Which result was noted for this compound in the test: `FC(F)(F)c1cc(CNc2ncc(Br)c(Cl)n2)cc(C(F)(F)F)c1`
Solution: inactive

Exercise: Next entry: `COc1ccccc1/C=C/C(=O)/C=C/c1ccccc1O`
Solution: active

Exercise: Next entry: `O=C(COc1cccc(/C=C2\COc3ccccc3C2=O)c1)c1ccccc1`
Solution: inactive

Exercise: Next entry: `Nc1nc2c(s1)CCc1c-2c(Br)n(Cc2ccccc2)c1Br`
Solution: inactive

Exercise: Next entry: C[C@@H](Oc1cc(-c2cnn(C3CC4(CCCNC4)C3)c2)cnc1N)c1c(Cl)ccc(F)c1Cl (stereo not given in full)
Solution: active

Exercise: Next entry: `Cc1c(NCC(=O)Nc2nc3ccccc3[nH]2)c(=O)n(-c2ccccc2)n1C`
Solution: inactive

Exercise: Next entry: `COC(=O)[C@@H]1CCCN1C(=O)[C@@H]1CCCN1C(=O)[C@@H](Cc1c[nH]c2ccccc12)NC(=S)Nc1cc(C(F)(F)F)cc(C(F)(F)F)c1`
Solution: inactive

Exercise: Next entry: `Cc1ccc(C)c2c1sc1nc3nc4sc5ccccc5n4c(=N)c3c(=O)n12`
Solution: inactive

Exercise: Next entry: `COc1ccc(Sc2ccc3[nH]c(=O)nc(N)c3c2)cc1`
Solution: inactive

Exercise: Next entry: `Cc1ccc(S(=O)(=O)c2ccc3[nH]c(=O)[nH]c(=O)c3c2)cc1`
Solution: inactive

###

test system: MALME-3M melanoma; experiment: NCI-60 one-dose screen, 48 h (100 = growth as untreated, 0 = no growth, -100 = all killed); settings: 10 µM unless noted
About 83,000 compounds went through this panel and 20% of them were active in at least one assay; those are over-represented in the sample as a whole.
readout: growth (%)
Expressed in %, but write only the number.

Exercise: What value of growth has been reported for the following compound? CCC(C)Oc1cc(/C=N/NC(=O)c2cnn3c2NC(c2ccccc2)C3)ccc1OC (stereo unspecified)
Solution: 58.4

Exercise: Next entry: `COc1nc2c(cc1S(=O)(=O)c1ccccc1)CCc1c-2cnn1-c1cccc(Cl)c1`
Solution: 78.7

Exercise: Next entry: `Cc1nc2cc(Nc3nc(N4CCCCC4)nc(N4CCOCC4)n3)ccc2n1Cc1ccccc1`
Solution: -3.76

Exercise: Next entry: `O=C(Nc1ccc(Cl)c(Cl)c1)NC(CO)(CO)CO`
Solution: 87.7

Exercise: Next entry: `CC(=O)OC[C@H](O)[C@@]1(O)CC[C@H]2[C@@H]3CCC4=CC(=O)CC[C@]4(C)[C@H]3[C@@H](O)C[C@@]21C`
Solution: 95.8

Exercise: Next entry: `O=C1/C(=C/c2ccc(F)cc2)CN(Cc2cn(CCNc3ccnc4cc(Cl)ccc34)nn2)C/C1=C\c1ccc(F)cc1`
Solution: -80.6

Exercise: Next entry: `CCCC1=NNC(=O)C1`
Solution: 101

Exercise: Next entry: `C[C@]1(CO)C[C@@H](O)C[C@]2(C)[C@@H]1CC[C@@]13C[C@@H]4[C@@H](C[C@H]12)[C@]4(C)C3`
Solution: 94.4

Exercise: Next entry: `COc1cc(-c2ccc3cc(OC)c(OC)c(OC)c3c2)cc(OC)c1OC`
Solution: 68.1

Exercise: Next entry: `O=C(COc1cccc(/C=C2\COc3ccccc3C2=O)c1)c1ccccc1`
Solution: 90

Exercise: Next entry: O=C1CCC(N2C(=O)c3cccc(NCCOCCOCCNC(=O)c4cc5c(o4)C(=O)c4ccccc4C5=O)c3C2=O)C(=O)N1 (stereo unspecified)
Solution: -95.2

Exercise: Next entry: `CCN1CCN(c2nc3ccccc3c3c(=O)c4cc(F)ccc4sc23)CC1`
Solution: 90.9

Exercise: Next entry: O=C1CCC(N2Cc3c(C#CCCCNC(=O)c4cc5c(o4)C(=O)c4ccccc4C5=O)cccc3C2=O)C(=O)N1 (stereo unspecified)
Solution: -97.6

Exercise: Next entry: `O=C1C(OCCOc2ccccc2)=C(OCCOc2ccccc2)C(=O)c2ccccc21`
Solution: 54.7

Exercise: Next entry: `O=S(=O)(/N=C1C=C/C(=N\S(=O)(=O)c2ccccc2)c2ccccc2\1)c1ccccc1`
Solution: 107

Exercise: Next entry: `CC(C)N1CCN(c2ccc(OC[C@H]3CO[C@](Cn4cncn4)(c4ccc(Cl)cc4Cl)O3)cc2)CC1`
Solution: 86.1

Exercise: Next entry: `FC(F)(F)Oc1ccc2c(c1)C[C@H]1C[C@@H](c3ccoc3)N2O1`
Solution: 109

Exercise: Next entry: `Cl.Fc1c[c-]c(-c2ccccn2)c(F)c1.[Pt].c1ccc([PH+](CC[PH+](c2ccccc2)c2ccccc2)c2ccccc2)cc1`
Solution: -87.2

Exercise: Next entry: `O=c1oc2ccccc2cc1-c1csc(N=Nc2c(O)[nH]c3ccc(Cl)cc23)n1`
Solution: 105

Exercise: Next entry: `Cc1ccc(C)c2c1sc1nc3nc4sc5ccccc5n4c(=N)c3c(=O)n12`
Solution: 143

Exercise: Next entry: `Cc1cc(=O)c2c(C)ccc(C)c2[nH]1`
Solution: 102

Exercise: Next entry: `Cn1c(=O)c2c(-c3ccccc3F)n(-c3ccc4c(c3)OCO4)cc2n(C)c1=O`
Solution: 141

Exercise: Next entry: `O=C1c2cc(S(=O)(=O)O)ccc2C(=O)c2c1cccc2[N+](=O)[O-]`
Solution: 111

Exercise: Next entry: `O=C(C[Si](CC(=O)c1cccc(C(F)(F)F)c1)CC(=O)c1cccc(C(F)(F)F)c1)c1cccc(C(F)(F)F)c1`
Solution: 77.2

Exercise: Next entry: `Oc1cccc(Nc2nc(-c3ccccn3)cs2)c1`
Solution: 109

Exercise: Next entry: `O=c1c2c(=NCCN3CCCC3)cc3c(=O)n(CCCN4CCOCC4)c(=O)c4ccc(c(O)n1CCCN1CCOCC1)c2c4-3`
Solution: -70.7

Exercise: Next entry: COc1ccc(/C=N/OCC(O)CNCc2ccccc2)cc1OC1CCCC1 (stereo unspecified)
Solution: 106

Exercise: Next entry: `Cc1ccc2nc(NC(=O)CSC(=S)N3CCN(Cc4ccccc4)CC3)sc2c1`
Solution: -58

Exercise: Next entry: COc1cc(/C=N/NC(=O)c2cnn3c2NC(c2ccccc2)C3)ccc1OC1CCCC1 (stereo unspecified)
Solution: 40.1

Exercise: Next entry: `Cc1nc2nc(C(F)(F)F)[nH]c2nc1C`
Solution: 117

Exercise: Next entry: `O=C(N/N=C/c1ccc(F)cc1)c1[nH]c2ccc(I)cc2c1-c1ccccc1`
Solution: 71.5
